- target_or_system: Trace amine-associated receptor 1 (Homo sapiens) (UniProt Q96RJ0)
- Sequence (Q96RJ0 whole entry, looked up): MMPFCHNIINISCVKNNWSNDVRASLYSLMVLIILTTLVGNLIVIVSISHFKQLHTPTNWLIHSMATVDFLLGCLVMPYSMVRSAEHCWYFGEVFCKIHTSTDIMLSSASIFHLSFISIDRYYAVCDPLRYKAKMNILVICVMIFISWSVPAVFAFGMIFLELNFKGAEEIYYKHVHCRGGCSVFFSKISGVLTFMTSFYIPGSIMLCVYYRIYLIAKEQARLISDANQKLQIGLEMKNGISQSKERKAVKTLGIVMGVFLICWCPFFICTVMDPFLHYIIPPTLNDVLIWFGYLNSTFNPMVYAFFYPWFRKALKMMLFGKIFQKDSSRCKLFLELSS
- method_notes: blockers of beta-PEA-driven TAAR1 calcium signal – Fluo-8 calcium fluorescence, CHO RD-HGA16 cells, primary screen (AID 624466);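 further: 0% = DMSO plus EC80 beta-PEA response and 100% = DMSO alone without agonist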
- run_parameters: CHO RD-HGA16 TAAR1, Fluo-8 calcium fluorescence, antagonist; at 3 µM; active compounds read high
About 5,400 (1.5%) of roughly 360,000 compounds were called active. This excerpt belongs to a sample that is enriched for actives.

{"compound": "O=S(=O)(c1ccccc1)N1CCC2CCNC2C1 (stereo not given)", "readout_units": "%", "inhibition": -13.7}
{"compound": "COC(=O)C1=C(c2ccc(OCc3ccccc3)cc2)C[C@@H]2CC[C@H]1N2C(=O)NCc1ccc(Cl)cc1", "readout_units": "%", "inhibition": -21.6}
{"compound": "Cc1cc(-c2ccc(N)c(C)c2)ccc1N", "readout_units": "%", "inhibition": 6.17}
{"compound": "O=c1[nH]c(=O)n(-c2ccccc2)c(O)c1C=NC12CN3CN(CN(C3)C1)C2", "readout_units": "%", "inhibition": 3.93}
{"compound": "CCCCCn1c(=O)c(C(=O)NCc2ccccn2)c(O)c2ccccc21", "readout_units": "%", "inhibition": 9.96}
{"compound": "c1ccc(CCN2CCC3(CC2)OCCO3)cc1", "readout_units": "%", "inhibition": -16.1}
{"compound": "Brc1ccc2c(c1)CNCc1cnnn1-2", "readout_units": "%", "inhibition": -22.5}
{"compound": "c1cc2c(cc1CCNC1CCCCCC1)OCO2", "readout_units": "%", "inhibition": -6.33}
{"compound": "O=c1[nH]c(=O)n(CCc2ccc(F)cc2)c(O)c1/C=N/N1CCCCC1", "readout_units": "%", "inhibition": -33.7}
{"compound": "COC(=O)C1=C(c2ccc(Cl)c(C(F)(F)F)c2)C[C@@H]2CC[C@H]1N2C(=O)NC1CC1", "readout_units": "%", "inhibition": 36.7}
{"compound": "CC(=O)c1c(O)n(C2CCCCCC2)c(=O)[nH]c1=O", "readout_units": "%", "inhibition": -7.9}
{"compound": "COC(=O)N1C(c2ccccc2)C1c1ccccc1 (stereo not given)", "readout_units": "%", "inhibition": 2.76}
{"compound": "CC(=O)Nc1ccc(C(=O)C(Cc2ccccc2)N(C)C)cc1 (stereo not given)", "readout_units": "%", "inhibition": -13.4}
{"compound": "COc1ccc(-n2nnnc2C(c2cccc3ccccc23)N2CCC(n3c(=O)[nH]c4ccccc43)CC2)cc1 (stereo not given)", "readout_units": "%", "inhibition": 40.3}
{"compound": "Clc1ccc([C@@H]2CC3CCC2N3)cn1 (stereo not given in full)", "readout_units": "%", "inhibition": -10.7}
{"compound": "CCCCC(=O)N/N=C/c1c(O)n(CCC2=CCCCC2)c(=O)[nH]c1=O", "readout_units": "%", "inhibition": -20.4}
{"compound": "O=C1C2(Cl)C3(Cl)C4(Cl)C(Cl)(Cl)C5(Cl)C3(Cl)C1(Cl)C5(Cl)C24Cl (stereo not given)", "readout_units": "%", "inhibition": 64.1}
{"compound": "COc1cc(OC)cc(C(=O)NCCN2CCC3(CC2)C(=O)NCN3c2ccccc2)c1", "readout_units": "%", "inhibition": -2.28}
{"compound": "CC(Cc1ccccc1)NCCC(c1ccccc1)c1ccccc1 (stereo not given)", "readout_units": "%", "inhibition": 45.6}
{"compound": "CN(C)/C=C(\\C=[N+](C)C)c1[nH]ncc1[N+](=O)[O-]", "readout_units": "%", "inhibition": -2.16}
{"compound": "COC(=O)C1=C(c2cccc(OCc3ccccc3)c2)C[C@@H]2CC[C@H]1N2C(=O)NCc1ccc(Br)cc1", "readout_units": "%", "inhibition": -0.83}
{"compound": "COc1cc(C(c2c(O)c3ccccc3oc2=O)c2c(C)n(C)n(-c3ccccc3)c2=O)ccc1O (stereo not given)", "readout_units": "%", "inhibition": 3.68}
{"compound": "COC(=O)C1=C(c2ccccc2OCc2ccccc2)C[C@@H]2CC[C@H]1N2C(=O)NCc1ccc(OC)cc1", "readout_units": "%", "inhibition": 56.6}
{"compound": "COC(=O)C1=C(c2ccc(F)cc2OCc2ccccc2)C[C@@H]2CC[C@H]1N2C(=O)NCc1ccc2[nH]ccc2c1", "readout_units": "%", "inhibition": 29.6}
{"compound": "COc1ccc(CN2CCN(c3ccccc3F)CC2)c(OC)c1", "readout_units": "%", "inhibition": -21.7}
{"compound": "COC(=O)C1=C(c2ccc(F)cc2OCc2ccccc2)C[C@@H]2CC[C@H]1N2C(=O)NCc1ccc(C(C)(C)C)cc1", "readout_units": "%", "inhibition": 12.1}
{"compound": "CS(=O)(=O)N1CCC2CCNC2C1 (stereo not given)", "readout_units": "%", "inhibition": -17.4}
{"compound": "Cc1cccc(NC(=O)OC2CN3CCC2CC3)c1 (stereo not given)", "readout_units": "%", "inhibition": -7.58}
{"compound": "CCC(C)NC1(c2ccccc2)CCCCC1 (stereo not given)", "readout_units": "%", "inhibition": -0.42}
{"compound": "O=C1NC(=O)C(C/C=C/c2ccccc2)C(=O)N1", "readout_units": "%", "inhibition": 9.88}
{"compound": "c1ccc(CCNC2CCCCCC2)cc1", "readout_units": "%", "inhibition": 85.7}
{"compound": "CC12CCC3C(CCC4CC(=O)CCC43C)C1CC(=NO)C2=O (stereo not given)", "readout_units": "%", "inhibition": -3.38}
{"compound": "Cn1c(O)c(C=NCCCC(=O)O)c(=O)n(C)c1=O", "readout_units": "%", "inhibition": -5.57}
{"compound": "O=c1[nH]c2ccccc2n1C1CCN(C(c2ccccc2)c2nnnn2Cc2ccccc2)CC1 (stereo not given)", "readout_units": "%", "inhibition": 52.2}
{"compound": "CSCCC(c1nnnn1C(C)(C)C)N1CCC(n2c(=O)[nH]c3ccccc32)CC1 (stereo not given)", "readout_units": "%", "inhibition": 52.1}
{"compound": "CCC(=NCCc1ccccc1)c1c(O)n(C2CCCCC2)c(=O)[nH]c1=O", "readout_units": "%", "inhibition": 60.3}
{"compound": "Cc1ccc(Cn2nnnc2CN2CCC(n3nnc4ccccc43)CC2)cc1", "readout_units": "%", "inhibition": -2.23}
{"compound": "O=c1[nH]c2ccccc2n1C1CCN(C(c2ccnc3ccccc23)c2nnnn2Cc2ccccc2)CC1 (stereo not given)", "readout_units": "%", "inhibition": 54.6}
{"compound": "CCN(CC)C(=O)[C@@H]1C=C2c3cccc4[nH]c(Br)c(c34)C[C@H]2N(C)C1", "readout_units": "%", "inhibition": -12.3}
{"compound": "CC(C)(C)c1ccc(OC(=O)N2CCCCC2)cc1", "readout_units": "%", "inhibition": 21.5}

Hey, just so you know, these numbers are from PubChem BioAssay AID624466.
